# METHOD_DESCRIPTION: Inhibition of HIV-1 integrase strand transfer activity assessed as reduction in viral replication in presence of 10% fetal bovine serum and 15 mg/mL human serum albumin
pEC50: −log10 of the molar value.

[
  {
    "COMPOUND_STRUCTURE_STRING": "CC1(C)OCCn2c1nc(C(=O)NCc1ccc(F)cc1Cl)c(O)c2=O",
    "pEC50": 6.07
  },
  {
    "COMPOUND_STRUCTURE_STRING": "CC1(C)OCCn2c1nc(C(=O)NCc1ccc(F)cc1S(C)(=O)=O)c(O)c2=O",
    "pEC50": 8.22
  },
  {
    "COMPOUND_STRUCTURE_STRING": "CN(C)S(=O)(=O)c1cc(F)ccc1CNC(=O)c1nc2n(c(=O)c1O)CCCC21CCCC1",
    "pEC50": 7.57
  },
  {
    "COMPOUND_STRUCTURE_STRING": "O=C(NCc1ccc(F)cc1N1CCCCS1(=O)=O)c1nc2n(c(=O)c1O)CCCC21CCCC1",
    "pEC50": 7.68
  },
  {
    "COMPOUND_STRUCTURE_STRING": "Cc1cc(CNC(=O)c2nc3n(c(=O)c2O)CCOC3(C)C)ccc1F",
    "pEC50": 7.05
  },
  {
    "COMPOUND_STRUCTURE_STRING": "CC1(C)OCCn2c1nc(C(=O)NCc1ccc(F)cc1)c(O)c2=O",
    "pEC50": 7.77
  },
  {
    "COMPOUND_STRUCTURE_STRING": "Cc1cc(CNC(=O)c2nc3n(c(=O)c2O)CCCC32CCCC2)ccc1F",
    "pEC50": 6.83
  },
  {
    "COMPOUND_STRUCTURE_STRING": "CS(=O)(=O)c1cc(F)ccc1CNC(=O)c1nc2n(c(=O)c1O)CCCC21CCCC1",
    "pEC50": 8.10
  },
  {
    "COMPOUND_STRUCTURE_STRING": "Cc1cc(F)ccc1CNC(=O)c1nc2n(c(=O)c1O)CCOC2(C)C",
    "pEC50": 6.25
  },
  {
    "COMPOUND_STRUCTURE_STRING": "O=C(NCc1ccc(F)cc1S(=O)(=O)N1CCOCC1)c1nc2n(c(=O)c1O)CCCC21CCCC1",
    "pEC50": 7.85
  },
  {
    "COMPOUND_STRUCTURE_STRING": "CN(C)S(=O)(=O)c1c(CNC(=O)c2nc3n(c(=O)c2O)CCOC3(C)C)ccc(F)c1F",
    "pEC50": 7.92
  },
  {
    "COMPOUND_STRUCTURE_STRING": "CC1(C)OCCn2c1nc(C(=O)NCc1ccc(F)cc1N1CCOCC1)c(O)c2=O",
    "pEC50": 7.72
  },
  {
    "COMPOUND_STRUCTURE_STRING": "O=C(NCc1ccc(F)cc1)c1nc2n(c(=O)c1O)CCCC21CCCC1",
    "pEC50": 7.72
  },
  {
    "COMPOUND_STRUCTURE_STRING": "CC1(C)OCCn2c1nc(C(=O)NCc1ccc(F)c(Cl)c1)c(O)c2=O",
    "pEC50": 7.08
  },
  {
    "COMPOUND_STRUCTURE_STRING": "CNC(=O)c1cc(F)ccc1CNC(=O)c1nc2n(c(=O)c1O)CCOC2(C)C",
    "pEC50": 8.52
  },
  {
    "COMPOUND_STRUCTURE_STRING": "CC1(C)OCCn2c1nc(C(=O)NCc1ccc(F)cc1N1CCCCS1(=O)=O)c(O)c2=O",
    "pEC50": 8.15
  }
]

----------
# METHOD_DESCRIPTION: Inhibition of HIV-1 integrase strand transfer activity assessed as reduction in viral replication in presence of 40% human serum
pEC50: −log10 of the molar value.

[
  {
    "COMPOUND_STRUCTURE_STRING": "CC1(C)OCCn2c1nc(C(=O)NCc1ccc(F)cc1)c(O)c2=O",
    "pEC50": 7.60
  }
]

----------
# METHOD_DESCRIPTION: Inhibition of HIV-1 integrase strand transfer activity assessed as reduction in viral replication in presence of 10% fetal bovine serum

[
  {
    "COMPOUND_STRUCTURE_STRING": "CC1(C)OCCn2c1nc(C(=O)NCc1ccc(F)cc1)c(O)c2=O",
    "READOUT_UNIT": "nM",
    "EC50": 2
  },
  {
    "COMPOUND_STRUCTURE_STRING": "Cc1cc(F)ccc1CNC(=O)c1nc2n(c(=O)c1O)CCOC2(C)C",
    "READOUT_UNIT": "nM",
    "EC50": 21
  },
  {
    "COMPOUND_STRUCTURE_STRING": "CN(C)S(=O)(=O)c1c(CNC(=O)c2nc3n(c(=O)c2O)CCOC3(C)C)ccc(F)c1F",
    "READOUT_UNIT": "nM",
    "EC50": 3
  },
  {
    "COMPOUND_STRUCTURE_STRING": "CNC(=O)c1cc(F)ccc1CNC(=O)c1nc2n(c(=O)c1O)CCOC2(C)C",
    "READOUT_UNIT": "nM",
    "EC50": 2
  },
  {
    "COMPOUND_STRUCTURE_STRING": "O=C(NCc1ccc(F)cc1)c1nc2n(c(=O)c1O)CCCC21CCCC1",
    "READOUT_UNIT": "nM",
    "EC50": 2
  }
]

These data points were gathered from BindingDB's records for doi:10.1016/j.bmcl.2018.05.027.
